test: Stability of peptides in simulated intestinal fluid (pH 7.5); format: in vitro ADME; settings: simulated gi fluid, pH 7.5
Where a SMILES comes first, the peptide text is derived from it. [ ]: non-standard residue; d: D form. ξ: configuration not given here. ξαMePhe(2-F) = CC(N)(Cc1ccccc1F)C(=O)O; hArg = N=C(N)NCCCC[C@H](N)C(=O)O; hCit = NC(=O)NCCCC[C@H](N)C(=O)O; Cit = NC(=O)NCCC[C@H](N)C(=O)O; ξαMeF = CC(N)(Cc1ccccc1)C(=O)O; Nle = CCCC[C@H](N)C(=O)O; ξαMeP = CC1(C(=O)O)CCCN1; Ac5c = NC1(C(=O)O)CCCC1; Aib = CC(C)(N)C(=O)O
property-name: half-life (t1/2) in simulated intestinal fluid

compound | result
CCCC[C@H](NC(=O)C(C)(Cc1ccccc1F)NC(=O)[C@H](CCC(N)=O)NC(=O)[C@@H](NC(=O)[C@H](CCC(=O)O)NC(=O)C(C)(C)NC(=O)[C@@H](NC(=O)C1(N)CCCC1)C(C)C)[C@@H](C)CC)C(=O)N[C@@H](Cc1c[nH]cn1)C(=O)N[C@@H](CCC(N)=O)C(=O)N[C@@H](CCCCNC(N)=O)C(=O)N[C@@H](C)C(=O)N[C@@H](CCCNC(N)=O)C(=O)NC(C)(Cc1ccccc1F)C(N)=O (some centres unmarked) [Seq. ID. 411] (H-[Ac5c]V[Aib]EIQ[ξαMePhe(2-F)][Nle]HQ[hCit]A[Cit][ξαMePhe(2-F)]-NH2) | (6) h
CCCC[C@H](NC(=O)C(C)(Cc1ccccc1F)NC(=O)[C@H](CCC(N)=O)NC(=O)[C@@H](NC(=O)[C@H](CCC(=O)O)NC(=O)C(C)(C)NC(=O)[C@@H](NC(=O)C(C)(C)N)C(C)C)[C@@H](C)CC)C(=O)N[C@@H](Cc1c[nH]cn1)C(=O)N[C@@H](CCC(N)=O)C(=O)N[C@@H](CCCCNC(=N)N)C(=O)N1CCCC1(C)C(=O)N[C@@H](CCCCN)C(=O)NC(C)(Cc1ccccc1)C(N)=O (some centres unmarked) [Seq. ID. 25] (H-[Aib]V[Aib]EIQ[ξαMePhe(2-F)][Nle]HQ[hArg][ξαMeP]K[ξαMeF]-NH2) | (6) h

* * *

assay: Stability of peptides in simulated intestinal fluid (pH 7.5); assay type: in vitro ADME; conditions: simulated intestinal fluid, 24 h, 2 μM, pH 7.5
Where a SMILES comes first, the peptide text is derived from it. [ ]: non-standard residue; d: D form. ξ: configuration not given here. ξBip(2'-Et-4'-OMe) = CCc1cc(OC)ccc1-c1ccc(CC(N)C(=O)O)cc1; ξαMePhe(2,6-F2) = CC(N)(Cc1c(F)cccc1F)C(=O)O; ξαMePhe(2-F) = CC(N)(Cc1ccccc1F)C(=O)O; hArg = N=C(N)NCCCC[C@H](N)C(=O)O; hCit = NC(=O)NCCCC[C@H](N)C(=O)O; Nle = CCCC[C@H](N)C(=O)O; ξαMeP = CC1(C(=O)O)CCCN1; Ac5c = NC1(C(=O)O)CCCC1; Aib = CC(C)(N)C(=O)O
Reported % degradation of peptides in 24 h when incubated with simulated intestinal fluid values follow for various compounds
property-name: % degradation of peptides in 24 h when incubated with simulated intestinal fluid (%)

compound | result-number
CCc1cc(OC)ccc1-c1ccc(CC(NC(=O)[C@H](CCCCN)NC(=O)[C@H](C)NC(=O)[C@H](CCCCNC(=N)N)NC(=O)[C@H](CCC(N)=O)NC(=O)[C@H](Cc2c[nH]cn2)NC(=O)[C@H](CCSC)NC(=O)[C@H](CC(C)C)NC(=O)[C@H](CCC(N)=O)NC(=O)[C@@H](NC(=O)[C@H](CCC(=O)O)NC(=O)C(C)(C)NC(=O)[C@@H](NC(=O)C2(N)CCCC2)C(C)C)[C@@H](C)CC)C(N)=O)cc1 (stereo partly shown) [Seq. ID. 650] (H-[Ac5c]V[Aib]EIQLMHQ[hArg]AK[ξBip(2'-Et-4'-OMe)]-NH2) | 41
CCCC[C@H](NC(=O)C(C)(Cc1ccccc1F)NC(=O)[C@H](CCC(N)=O)NC(=O)[C@@H](NC(=O)[C@H](CCC(=O)O)NC(=O)C(C)(C)NC(=O)[C@@H](NC(=O)C(C)(C)N)C(C)C)[C@@H](C)CC)C(=O)N[C@@H](Cc1c[nH]cn1)C(=O)N[C@@H](CCC(N)=O)C(=O)N[C@@H](CCCCNC(=N)N)C(=O)N1CCCC1(C)C(=O)N[C@@H](CCCCN)C(=O)NC(C)(Cc1ccccc1F)C(N)=O (stereo partly shown) [Seq. ID. 56] (H-[Aib]V[Aib]EIQ[ξαMePhe(2-F)][Nle]HQ[hArg][ξαMeP]K[ξαMePhe(2-F)]-NH2) | 00
CCCC[C@H](NC(=O)C(C)(Cc1c(F)cccc1F)NC(=O)[C@H](CCC(N)=O)NC(=O)[C@@H](NC(=O)[C@H](CCC(=O)O)NC(=O)C1(NC(=O)[C@@H](NC(=O)C2(N)CCCC2)C(C)C)CCCC1)[C@@H](C)CC)C(=O)N[C@@H](Cc1c[nH]cn1)C(=O)N[C@@H](CCC(N)=O)C(=O)N[C@@H](CCCCNC(=N)N)C(=O)N[C@@H](C)C(=O)N[C@@H](CCCCN)C(=O)NC(C)(Cc1c(F)cccc1F)C(N)=O (stereo partly shown) [Seq. ID. 115] (H-[Ac5c]V[Ac5c]EIQ[ξαMePhe(2,6-F2)][Nle]HQ[hArg]AK[ξαMePhe(2,6-F2)]-NH2) | 55
CCCC[C@H](NC(=O)C(C)(Cc1c(F)cccc1F)NC(=O)[C@H](CCC(N)=O)NC(=O)[C@@H](NC(=O)[C@H](CCC(=O)O)NC(=O)C(C)(C)NC(=O)[C@@H](NC(=O)C1(N)CCCC1)C(C)C)[C@@H](C)CC)C(=O)N[C@@H](Cc1c[nH]cn1)C(=O)N[C@@H](CCC(N)=O)C(=O)N[C@@H](CCCCNC(N)=O)C(=O)NC(C)(C)C(=O)NC(C)(C)C(=O)NC(C)(Cc1c(F)cccc1F)C(N)=O (stereo partly shown) [Seq. ID. 440] (H-[Ac5c]V[Aib]EIQ[ξαMePhe(2,6-F2)][Nle]HQ[hCit][Aib][Aib][ξαMePhe(2,6-F2)]-NH2) | 00
